Data credit: PubChem BioAssay (NCI)

- System: NCI-H322M lung
- method_notes: NCI-60 one-dose screen, 48 h
- measurement_parameters: 10 µM unless noted
The panel holds about 83,000 compounds, 20% with a hit somewhere; the sample as a whole holds those more often. The source made the active and inactive calls. How the source made its calls: active means growth percent below 10; inactive means the rest.
Classes used: active, inactive

INSERT INTO measurements (compound, answer_label) VALUES
  ('COc1cc(/C=N/Nc2ncnc3c2c(C)nn3-c2ccc(F)cc2)ccc1O', 'inactive'),
  ('CC1(C)c2ccccc2C(=O)C1(Br)Cc1ccccc1 (centres undefined)', 'inactive'),
  ('CC1(C)C(=O)CC[C@]2(C)[C@H]3C(=O)C=C4[C@@H]5C[C@@](C)(C(=O)NCCNCCN)CC[C@]5(C)CC[C@@]4(C)[C@]3(C)CC[C@@H]12', 'inactive'),
  ('NC(Cc1ccc(O)cc1)C(=O)N/N=C/c1ccccc1O (centres undefined)', 'inactive'),
  ('COC(=O)C(Cc1ccccc1)n1cc(COc2nc(Cl)nc(Nc3ccc(Cl)cc3)n2)nn1 (centres undefined)', 'inactive'),
  ('CC(=O)NC1=C(C#N)C(c2ccccc2Cl)c2c(ccc3ccccc23)O1 (centres undefined)', 'inactive'),
  ('COc1cnc2c(c1)C(=O)c1c-2n(CCCNC2=NCCS2)c(=O)c2cc([N+](=O)[O-])ccc12', 'active'),
  ('COc1cc2nc(Cl)nc(Nc3cccc(C(=O)/C=C/c4ccc(F)cc4)c3)c2cc1OC', 'inactive'),
  ('Cc1ccc(-c2nc([P+](c3ccccc3)(c3ccccc3)c3ccccc3)c(N3CCOCC3)o2)cc1', 'active');
